- measured.on: T1, full length human SIRPα v1 stably expressed on CHOK1 or 293F cells (human, UniProt P78324 31-504)
- T1 construct: whole, on cells; also called CHOK1-human SIRPα v1; CHOK1-hSIRPα v1
- assay.method.text: competitive FACS, mFc-CD47 ECD on CHOK1-human SIRPα v1 cells
- Experimental: Competitive FACS assay was also set up to further compare the blocking activity of the humanized antibodies and reference antibodies. Briefly antibody and mFc tagged human CD47 ECD recombinant protein were co-incubated with CHOK1 cells stably expressing human SIRPα v1 (FIG. 16A) or human SIRPα v2 (FIG. 16B). […] Fluorescence intensity was detected. Blocking ratio was determined by blockade of human CD47 ECD recombinant protein binding to SIRPα expressed CHOK1 cells. […]
metric.name: IC50 (nM)

hu025.060 (antibody, V domains shown, Humanized 025; also called hu025.60) VH: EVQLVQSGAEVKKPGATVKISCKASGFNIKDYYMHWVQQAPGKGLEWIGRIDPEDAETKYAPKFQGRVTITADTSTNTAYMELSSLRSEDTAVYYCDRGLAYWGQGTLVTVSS VL: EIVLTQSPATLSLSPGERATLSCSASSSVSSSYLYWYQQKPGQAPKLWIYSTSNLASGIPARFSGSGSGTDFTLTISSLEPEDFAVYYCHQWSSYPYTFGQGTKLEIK :: 0.53
